- Measured on: UniProtKB P41594
- Sequence (P41594 whole entry): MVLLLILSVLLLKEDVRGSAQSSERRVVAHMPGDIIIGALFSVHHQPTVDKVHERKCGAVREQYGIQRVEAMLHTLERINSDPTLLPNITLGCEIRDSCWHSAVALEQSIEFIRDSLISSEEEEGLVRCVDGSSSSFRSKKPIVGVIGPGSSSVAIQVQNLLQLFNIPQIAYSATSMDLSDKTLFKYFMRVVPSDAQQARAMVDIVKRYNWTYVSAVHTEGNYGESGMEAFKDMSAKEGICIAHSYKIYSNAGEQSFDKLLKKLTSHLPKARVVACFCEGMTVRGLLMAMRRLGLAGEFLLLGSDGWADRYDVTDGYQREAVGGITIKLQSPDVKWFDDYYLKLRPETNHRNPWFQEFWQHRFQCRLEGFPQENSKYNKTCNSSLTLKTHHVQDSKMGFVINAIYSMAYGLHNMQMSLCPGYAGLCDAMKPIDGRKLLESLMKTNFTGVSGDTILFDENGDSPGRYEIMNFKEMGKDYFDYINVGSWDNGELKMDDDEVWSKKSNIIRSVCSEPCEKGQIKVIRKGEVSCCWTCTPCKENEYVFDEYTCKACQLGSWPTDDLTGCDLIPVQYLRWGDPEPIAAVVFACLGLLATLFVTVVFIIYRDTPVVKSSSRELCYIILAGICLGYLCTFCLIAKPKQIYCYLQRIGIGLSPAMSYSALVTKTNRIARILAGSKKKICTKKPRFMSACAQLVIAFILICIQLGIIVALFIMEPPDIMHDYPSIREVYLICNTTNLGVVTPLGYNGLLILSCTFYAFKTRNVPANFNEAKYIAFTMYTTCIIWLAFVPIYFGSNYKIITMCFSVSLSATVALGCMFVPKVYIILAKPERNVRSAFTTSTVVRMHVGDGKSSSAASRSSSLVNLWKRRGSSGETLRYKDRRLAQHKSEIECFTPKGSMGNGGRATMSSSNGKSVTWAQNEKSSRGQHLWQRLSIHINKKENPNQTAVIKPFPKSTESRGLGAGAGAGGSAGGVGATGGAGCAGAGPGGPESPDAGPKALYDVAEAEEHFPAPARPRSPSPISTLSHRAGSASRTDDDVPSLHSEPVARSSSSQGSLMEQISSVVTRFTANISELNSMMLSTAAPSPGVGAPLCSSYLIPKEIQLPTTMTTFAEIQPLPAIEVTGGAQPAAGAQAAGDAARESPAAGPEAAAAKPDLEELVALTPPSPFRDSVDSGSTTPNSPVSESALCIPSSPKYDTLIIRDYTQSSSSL
- Procedure summary: Positive allosteric modulation activity at mGlu5 receptor
Quantity measured: EC50 (µM)
Numbers only; they are read as µM.

Task: Look up EC50 for this molecule: Cc1ccc(C#Cc2cncnc2)cc1
Output: 3.3

----------
- Measured on: Metabotropic glutamate receptor 7 (Homo sapiens)
- Sequence (Q14831 whole entry): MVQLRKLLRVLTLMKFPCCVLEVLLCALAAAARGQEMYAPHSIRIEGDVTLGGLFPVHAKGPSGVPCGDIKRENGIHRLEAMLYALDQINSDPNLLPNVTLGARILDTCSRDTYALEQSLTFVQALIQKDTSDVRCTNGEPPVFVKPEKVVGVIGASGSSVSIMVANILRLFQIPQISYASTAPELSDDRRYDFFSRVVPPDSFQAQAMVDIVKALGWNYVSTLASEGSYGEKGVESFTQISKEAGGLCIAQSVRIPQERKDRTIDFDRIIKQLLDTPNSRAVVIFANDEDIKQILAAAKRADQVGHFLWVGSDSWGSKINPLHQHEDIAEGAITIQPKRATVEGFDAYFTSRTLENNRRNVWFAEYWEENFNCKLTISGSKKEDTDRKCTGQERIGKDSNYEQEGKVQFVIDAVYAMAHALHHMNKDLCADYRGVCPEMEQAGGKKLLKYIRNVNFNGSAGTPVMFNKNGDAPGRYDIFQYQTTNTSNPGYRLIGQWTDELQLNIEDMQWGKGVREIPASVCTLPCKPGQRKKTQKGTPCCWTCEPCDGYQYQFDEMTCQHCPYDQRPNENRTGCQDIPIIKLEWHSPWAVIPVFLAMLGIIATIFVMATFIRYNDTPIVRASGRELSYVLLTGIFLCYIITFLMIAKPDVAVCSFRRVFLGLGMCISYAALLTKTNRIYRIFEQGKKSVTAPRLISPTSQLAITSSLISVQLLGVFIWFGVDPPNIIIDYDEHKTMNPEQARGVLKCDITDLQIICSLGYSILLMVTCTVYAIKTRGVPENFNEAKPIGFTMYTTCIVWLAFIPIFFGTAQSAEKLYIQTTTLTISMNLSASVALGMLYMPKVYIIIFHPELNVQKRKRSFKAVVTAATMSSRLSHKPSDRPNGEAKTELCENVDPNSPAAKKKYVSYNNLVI
- Procedure summary: Positive allosteric modulation activity at mGlu7 receptor
Quantity measured: EC50

Task: Look up EC50 for this molecule: O=C(Nc1ccccn1)[C@]12C[C@H]1/C(=N\O)c1ccccc1O2
Output: > 30 µM

----------
- Measured on: Adenosine receptor A1 (Homo sapiens) (UniProt P30542)
- Procedure summary: Allosteric modulation at adenosine A1 receptor assessed as receptor mediated ERK1/2 phosphorylation
Quantity measured: pKb
Give the figure by itself; no unit, no explanation.

Guide cases for pKb, answers given:
{"Compound": "Nc1sc2c(c1C(=O)c1ccc(Cl)cc1)CC1C=C(C(F)(F)F)C=CC1C2 (stereo not drawn)", "Quantity measured": "pKb", "Quantitative readout": 5.12}
{"Compound": "Nc1scc(-c2cccc(C(F)(F)F)c2)c1C(=O)c1ccccc1", "Quantity measured": "pKb", "Quantitative readout": 6.37}

Task: Look up pKb for this compound: Nc1scc(-c2cc(C(F)(F)F)cc(C(F)(F)F)c2)c1C(=O)c1ccccc1
Output: 5.22

Task: Look up pKb for this compound: Nc1scc(-c2ccccc2F)c1C(=O)c1ccc(Cl)cc1
Output: 5.1

Task: Look up pKb for this compound: Nc1sc2c(c1C(=O)c1ccccc1)CCCCCC2
Output: 5.08

Task: Look up pKb for this compound: CC(C)(C)OC(=O)N1CCc2sc(N)c(C(=O)c3ccc(Cl)cc3)c2CC1
Output: 5.23

Task: Look up pKb for this compound: Cc1ccc(C(=O)c2c(N)sc3c2CCCC3)cc1
Output: 5.1

----------
- Measured on: Adenosine receptor A1 (Homo sapiens) (UniProt P30542)
- Sequence (whole entry): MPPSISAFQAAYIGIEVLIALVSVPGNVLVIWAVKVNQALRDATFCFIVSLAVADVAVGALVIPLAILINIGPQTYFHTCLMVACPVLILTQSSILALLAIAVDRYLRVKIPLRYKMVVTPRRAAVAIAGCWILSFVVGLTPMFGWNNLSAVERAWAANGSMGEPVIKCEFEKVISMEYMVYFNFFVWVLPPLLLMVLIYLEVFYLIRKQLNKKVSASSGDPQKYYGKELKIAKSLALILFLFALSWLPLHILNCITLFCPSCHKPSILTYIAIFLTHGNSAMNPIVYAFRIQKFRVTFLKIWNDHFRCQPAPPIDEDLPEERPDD
- Procedure summary: Allosteric modulation at adenosine A1 receptor assessed as receptor mediated ERK1/2 phosphorylation
Quick reference for pKb among some molecules
Give the figure by itself; no unit, no explanation.

Guide cases for pKb, answers given:
{"Molecule": "Nc1scc(-c2cccc(C(F)(F)F)c2)c1C(=O)c1ccc(Cl)cc1", "pKb": 5.74}
{"Molecule": "CCOC(=O)c1c(N)sc2c1CCN(C(=O)OC(C)(C)C)CC2", "pKb": 6.07}
{"Molecule": "Nc1sc2c(c1C(=O)c1ccc(Cl)cc1)CC1C=CC(C(F)(F)F)=CC1C2 (stereo unspecified)", "pKb": 5.11}

Task: Look up pKb for this molecule: Nc1scc(-c2cccc(F)c2)c1C(=O)c1ccc(Cl)cc1
Output: 5.88

Task: Look up pKb for this molecule: Nc1sc(-c2ccccc2)cc1C(=O)c1ccccc1
Output: 6.36

Task: Look up pKb for this molecule: CCOC(=O)c1nn(-c2cccc(Cl)c2)c(=O)c2c(N)scc12
Output: 8.3

Task: Look up pKb for this molecule: Nc1sc2c(c1C(=O)c1ccc(Cl)cc1)CCCC2
Output: 5.49

Task: Look up pKb for this molecule: Nc1sc2c(c1C(=O)c1ccc(Cl)cc1)CC1C=CC=CC1C2 (stereo unspecified)
Output: 6.01

Task: Look up pKb for this molecule: Nc1sc(-c2cncnc2)c2c1C(=O)c1ccccc1-2
Output: 6.67

Task: Look up pKb for this molecule: Nc1sc(-c2cncnc2)cc1C(=O)c1ccccc1
Output: 5.82

Task: Look up pKb for this molecule: Nc1scc(-c2cc(C(F)(F)F)cc(C(F)(F)F)c2)c1C(=O)c1ccc(Cl)cc1
Output: 5.46
